measurement-target: hA3AR-NanoBit-βarr2 (A3AR-LgBit with SmBit-βarr2) (Homo sapiens, UniProt P0DMS8)
measurement-protocol: cell-based
reported-conditions: HEK-293T, read-out: Stable A3AR NanoBit® HEK293T cell line^A / Emax (%)
observation-type: Emax (%)
One number for each entry, in %.

mol-smiles	measurement-target	Emax (%)
CCNc1cc(C#Cc2ccc(Cl)s2)nc2c1ncn2[C@H]1[C@H](O)[C@H](O)[C@]2(C(=O)NC)C[C@H]12	hA3AR-NanoBit-βarr2 (A3AR-LgBit with SmBit-βarr2) (Homo sapiens, UniProt P0DMS8)	74.4
CNC(=O)[C@@]12C[C@@H]1[C@@H](n1cnc3c(C)nc(C#Cc4ccc(Cl)s4)nc31)[C@H](O)[C@@H]2O	hA3AR-NanoBit-βarr2 (A3AR-LgBit with SmBit-βarr2) (Homo sapiens, UniProt P0DMS8)	84.5
CNC(=O)[C@H]1O[C@@H](n2cnc3c(NCc4cccc(I)c4)ncnc32)[C@H](O)[C@@H]1O	hA3AR-NanoBit-βarr2 (A3AR-LgBit with SmBit-βarr2) (Homo sapiens, UniProt P0DMS8)	78.4
OC[C@H]1O[C@@H](n2cnc3c(NC4CCCC4)ncnc32)[C@H](O)[C@@H]1O	hA3AR-NanoBit-βarr2 (A3AR-LgBit with SmBit-βarr2) (Homo sapiens, UniProt P0DMS8)	56.9
C[C@@H](Cc1ccccc1)Nc1ncnc2c1ncn2[C@@H]1O[C@H](CO)[C@@H](O)[C@H]1O	hA3AR-NanoBit-βarr2 (A3AR-LgBit with SmBit-βarr2) (Homo sapiens, UniProt P0DMS8)	51
CNC(=O)[C@@]12C[C@@H]1[C@@H](n1cnc3cnc(C#Cc4ccc(Cl)s4)nc31)[C@H](O)[C@@H]2O	hA3AR-NanoBit-βarr2 (A3AR-LgBit with SmBit-βarr2) (Homo sapiens, UniProt P0DMS8)	68.4
O[C@@H]1[C@H](O)[C@@H]2C[C@@H]2[C@H]1n1cnc2c(NCc3cccc(I)c3)nc(Cl)nc21	hA3AR-NanoBit-βarr2 (A3AR-LgBit with SmBit-βarr2) (Homo sapiens, UniProt P0DMS8)	5.2

Consider the additional compound presented here.
For CCNC(=O)[C@H]1O[C@@H](n2cnc3c(N)nc(NCCc4ccc(CCC(=O)O)cc4)nc32)[C@H](O)[C@@H]1O , what is its reported Emax?
99

----------
measurement-target: human A3AR (hA3AR) (Homo sapiens, UniProt P0DMS8)
Sequence (P0DMS8 1-318): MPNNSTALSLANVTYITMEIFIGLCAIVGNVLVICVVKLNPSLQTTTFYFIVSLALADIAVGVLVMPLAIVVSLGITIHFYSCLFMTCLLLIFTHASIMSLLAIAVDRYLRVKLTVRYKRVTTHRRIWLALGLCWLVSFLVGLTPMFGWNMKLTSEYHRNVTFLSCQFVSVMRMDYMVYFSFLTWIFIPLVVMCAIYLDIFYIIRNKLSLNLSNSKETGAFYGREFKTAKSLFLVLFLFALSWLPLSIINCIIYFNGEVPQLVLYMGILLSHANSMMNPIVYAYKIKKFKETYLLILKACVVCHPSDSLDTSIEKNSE
measurement-protocol: inhibition of forskolin-stimulated cAMP, CHO cells
Format: cell-based
observation-type: EC50 (nM)
Answers are plain numbers, in nM.

Notebook: pull reported EC50 for human A3AR (hA3AR) (Homo sapiens, UniProt P0DMS8), entry O[C@@H]1[C@H](O)[C@@H]2C[C@@H]2[C@H]1n1cnc2c(NCc3cccc(I)c3)nc(Cl)nc21 [MRS5127]
12.6

----------
So I've got a bunch of compounds here, and I need their EC50 values.
measurement-target: hA3AR-NanoBit-βarr2 (A3AR-LgBit with SmBit-βarr2) (Homo sapiens, UniProt P0DMS8)
measurement-protocol: NanoBit βarr2 recruitment, luminescence AUC
One number for each entry, in nM.

Example cases with answers are listed next.
compound	EC50 [nM]
CNC(=O)[C@@]12C[C@@H]1[C@@H](n1cnc3c(NC)nc(C#Cc4ccccc4OC)nc31)[C@H](O)[C@@H]2O [MRS5967]	4.68
CCCNc1nc(C#Cc2ccc(Cl)s2)nc2c1ncn2[C@H]1[C@H](O)[C@H](O)[C@]2(C(=O)NC)C[C@H]12 [MRS7154]	21.4
OC[C@H]1O[C@@H](n2cnc3c(Nc4ccccc4)ncnc32)[C@H](O)[C@@H]1O [N^6-phenyl-adenosine]	589

For each of the compounds below, note its EC50.
1. CNC(=O)[C@@]12C[C@@H]1[C@@H](n1cnc3c(NCc4cccc(Cl)c4)nc(C#Cc4ccc(-c5ccccc5)cc4)nc31)[C@H](O)[C@@H]2O [MRS5679]
2. OC[C@H]1O[C@@H](n2cnc3c(NC4CCCC4)cc(Cl)nc32)[C@H](O)[C@@H]1O [DCCA]
3. CCOC(=O)[C@@]12C[C@@H]1[C@@H](n1cnc3c(NC)nc(C#Cc4ccc(Cl)s4)nc31)[C@H](O)[C@@H]2O [MRS7232]

1: 1200; 2: 1480; 3: 50.1

Please go through the list and note EC50 for each compound.
1. CNC(=O)[C@@]12C[C@@H]1[C@@H](n1cnc3c(NC)nc(C#Cc4ccc(Cl)s4)cc31)[C@H](O)[C@@H]2O [MRS7173]
2. OC[C@H]1O[C@@H](n2cnc3c(NCc4ccccc4)ncnc32)[C@H](O)[C@@H]1O [N^6-benzyl-adenosine]
3. NCCNC(=O)Cc1ccc(NC(=O)Cc2ccc(Nc3ncnc4c3ncn4[C@@H]3O[C@H](CO)[C@@H](O)[C@H]3O)cc2)cc1 [ADAC]
4. CNC(=O)[C@@]12C[C@@H]1[C@@H](n1cnc3c(NC)nc(C#Cc4ccccc4Cl)nc31)[C@H](O)[C@@H]2O [MRS5663]

55
851
245
5.62

Give its EC50 value. Item: O[C@@H]1[C@H](O)[C@@H]2C[C@@H]2[C@H]1n1cnc2c(NCc3cccc(I)c3)nc(Cl)nc21 [MRS5127]
24.5

----------
measurement-target: hA3AR-NanoBit-βarr2 (A3AR-LgBit with SmBit-βarr2) (Homo sapiens)
measurement-protocol: cell-based
reported-conditions: HEK-293T, read-out: Stable A3AR NanoBit® HEK293T cell line^A / Emax (%)
observation-type: Emax (%)
Answers are plain numbers, in %.

See these solved cases before continuing.
molecule	quantitative-result
CNC(=O)[C@@]12C[C@@H]1[C@@H](n1cnc3c(NCc4cccc(Cl)c4)nc(C#Cc4ccc(F)c(F)c4)nc31)[C@H](O)[C@@H]2O [MRS5698]	83.5
O[C@@H]1[C@H](O)[C@@H]2C[C@@H]2[C@H]1n1cnc2c(NC(C3CC3)C3CC3)nc(Cl)nc21 [MRS5474]	9.8
C[C@H](Cc1ccccc1)Nc1ncnc2c1ncn2[C@@H]1O[C@H](CO)[C@@H](O)[C@H]1O [R-PIA]	56.6
OC[C@H]1O[C@@H](n2cnc3c(NC4CCCC4)nc(Cl)nc32)[C@H](O)[C@@H]1O [CCPA]	33.5
NCCNC(=O)Cc1ccc(NC(=O)Cc2ccc(Nc3ncnc4c3ncn4[C@@H]3O[C@H](CO)[C@@H](O)[C@H]3O)cc2)cc1 [ADAC]	73.7
Nc1nc(Cl)nc2c1ncn2[C@H]1[C@H](O)[C@H](O)[C@]2(CO)C[C@H]12 [MRS1873]	13

So what's the measured Emax for this one? CNC(=O)[C@@]12C[C@@H]1[C@@H](n1cnc3c(NC)nc(C#Cc4cccs4)nc31)[C@H](O)[C@@H]2O [MRS5917]
91.6

----------
measurement-target: hA3AR-NanoBit-βarr2 (A3AR-LgBit with SmBit-βarr2) (Homo sapiens, UniProt P0DMS8)
measurement-protocol: cell-based
reported-conditions: HEK-293T, read-out: Stable A3AR NanoBit® HEK293T cell line^A / Emax (%)
observation-type: Emax (%)
Answers are plain numbers, in %.

Examples with their reported Emax follow.
mol-smiles	Emax [%]
CNC(=O)[C@@]12C[C@@H]1[C@@H](n1cnc3c(NC)nc(C#Cc4ccccc4Cl)nc31)[C@H](O)[C@@H]2O	102
CNC(=O)[C@@]12C[C@@H]1[C@@H](n1cnc3c(NC)nc(C#Cc4ccc(Cl)s4)cc31)[C@H](O)[C@@H]2O	78.2

Would you be so kind as to report Emax for each listed record?
1. OC[C@H]1O[C@@H](n2cnc3c(NC4CCCC4)cc(Cl)nc32)[C@H](O)[C@@H]1O
2. OC[C@H]1O[C@@H](n2cnc3c(Nc4ccccc4)ncnc32)[C@H](O)[C@@H]1O

5.8
75.8

----------
measurement-target: human A3AR (hA3AR) (Homo sapiens, UniProt P0DMS8)
measurement-protocol: cell-based
reported-conditions: CHO, read-out: Stable A3AR CHO cell line^B / Emax (%)
Can you tell me Emax for the items I'm about to list?
Numbers only, in %.

Here's what some known entries look like.
compound	unit-name	Emax
OC[C@H]1O[C@@H](n2cnc3c(NC4CCCC4)nc(Cl)nc32)[C@H](O)[C@@H]1O [CCPA]	%	0
CCNc1cc(C#Cc2ccc(Cl)s2)nc2c1ncn2[C@H]1[C@H](O)[C@H](O)[C@]2(C(=O)NC)C[C@H]12 [MRS7144]	%	95.5
C[C@H](Cc1ccccc1)Nc1ncnc2c1ncn2[C@@H]1O[C@H](CO)[C@@H](O)[C@H]1O [R-PIA]	%	102
O[C@@H]1[C@H](O)[C@@H]2C[C@@H]2[C@H]1n1cnc2c(NC(C3CC3)C3CC3)nc(Cl)nc21 [MRS5474]	%	56
Nc1nc(Cl)nc2c1ncn2[C@H]1[C@H](O)[C@H](O)[C@]2(CO)C[C@H]12 [MRS1873]	%	41
CCNC(=O)[C@H]1O[C@@H](n2cnc3c(N)nc(NCCc4ccc(CCC(=O)O)cc4)nc32)[C@H](O)[C@@H]1O [CGS21680]	%	98
C[C@@H](Cc1ccccc1)Nc1ncnc2c1ncn2[C@@H]1O[C@H](CO)[C@@H](O)[C@H]1O [S-PIA]	%	97
CNC(=O)[C@@]12C[C@@H]1[C@@H](n1cnc3c(NC)nc(C#Cc4cccs4)nc31)[C@H](O)[C@@H]2O [MRS5917]	%	97.3
OC[C@H]1O[C@@H](n2cnc3c(NC4CCCC4)ncnc32)[C@H](O)[C@@H]1O [CPA]	%	97
CNC(=O)[C@@]12C[C@@H]1[C@@H](n1cnc3c(C)nc(C#Cc4ccc(Cl)s4)nc31)[C@H](O)[C@@H]2O [MRS7195]	%	107

Please state, for each entry, its recorded Emax.
1. CCOC(=O)[C@@]12C[C@@H]1[C@@H](n1ccc3c(NC)nc(C#Cc4ccc(Cl)s4)nc31)[C@H](O)[C@@H]2O [MRS7299]
2. CCNC(=O)[C@H]1O[C@@H](n2cnc3c(N)ncnc32)[C@H](O)[C@@H]1O [NECA]
3. NCCNC(=O)Cc1ccc(NC(=O)Cc2ccc(Nc3ncnc4c3ncn4[C@@H]3O[C@H](CO)[C@@H](O)[C@H]3O)cc2)cc1 [ADAC]
4. CNC(=O)[C@@]12C[C@@H]1[C@@H](n1cnc3cnc(C#Cc4ccc(Cl)s4)nc31)[C@H](O)[C@@H]2O [MRS7220]

[1, 103, 103, 97.8]
